TEST_DESCRIPTION: chemical genetic growth profiling, strain panel (AID 1159580);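 note: tested at 20 µM; growth read once vehicle control cultures reached saturation at 30 °C; lower values mean less growth of the strain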
CONDITION_SUMMARY: S. cerevisiae deletion strains, growth OD, locus YDR226W, strain ADK1
The campaign covered roughly 5,500 compounds. About 2,000 (36%) were called active. Not shown: some 18% with an inconclusive outcome. Cut-off read from the data, not from the text of the source: active = normalized growth mostly below about 0.91 (no sharp cut-off); inconclusive = no clear call, values can overlap the other calls; inactive = mostly above about 0.92. The list shows a part of the results.
Possible outcomes: active, inactive

INSERT INTO results (molecule, answer_label) VALUES
  ('O=[N+]([O-])c1ccc(-c2csc(Nc3ccncc3)n2)cc1', 'inactive'),
  ('O=C1/C(=C/c2cccs2)COc2ccccc21', 'inactive'),
  ('Oc1ccc(N=Nc2ccccn2)c(O)c1', 'active'),
  ('O=C(Nc1ccc(F)c(Cl)c1)c1ccccc1O', 'active'),
  ('O=C(CCn1c(=O)oc2ccccc21)Sc1ccc(C(F)(F)F)cc1', 'inactive'),
  ('COc1ccc(C(=O)NCc2csc3ccc(Cl)cc23)cc1OC', 'inactive'),
  ('Cc1nn(Cc2nnc(SCc3cccc(C(F)(F)F)c3)o2)c(C)c1Br', 'inactive'),
  ('S=C(Nc1cc(Cl)c(Cl)cc1Cl)Nc1ccccc1Br', 'inactive'),
  ('N#Cc1ccc(NC(=O)Nc2cccc3ccccc23)cc1', 'inactive'),
  ('O=C1/C(=C/c2ccc(C(F)(F)F)cc2)COc2ccccc21', 'inactive'),
  ('C/C(=N/Nc1ccccc1)c1cc(Cl)cc(Cl)c1O', 'inactive'),
  ('CSC(=NNc1ccccc1)NC(=O)c1c(Cl)cccc1Cl', 'inactive'),
  ('O=C(Nc1ccc(Cl)cc1)O/N=C\c1ccn(-c2ccccc2)n1', 'inactive'),
  ('COc1cc(CC/C(C)=N/O)ccc1OCc1ccc(Cl)cc1Cl', 'inactive'),
  ('O=C1CSC(c2ccc(C(F)(F)F)cc2)N1c1ccc(C(F)(F)F)cc1 (stereo not given)', 'inactive'),
  ('CS(=O)(=O)/C(C#N)=C/c1ccccc1OCc1c(Cl)cccc1Cl', 'inactive'),
  ('O=C(NNc1ccc(Cl)cc1)c1ccc(F)cc1F', 'inactive'),
  ('COc1ccc(OC)c(-c2ccn[nH]2)c1OCc1ccccc1', 'inactive'),
  ('CC1C/C(=N/Nc2ccc(Br)cc2)c2cc(Cl)ccc2S1 (stereo not given)', 'inactive'),
  ('O=C(Nc1cccc2ccccc12)c1ccccc1O', 'active'),
  ('Cc1c(S(=O)(=O)c2ccc(Cl)cc2)csc1C(=O)NNc1cccc(Cl)c1', 'inactive'),
  ('CS(=O)(=O)c1sc(C(=O)Sc2ccc(Cl)cc2)c2c1C=CCC2', 'active'),
  ('Cc1ccc(S(=O)(=O)Nc2ccc(Oc3ccc(F)cc3)cc2)cc1', 'inactive'),
  ('Cc1ccc(N2C(=O)CSC2c2ccc(Cl)c(Cl)c2)cc1Cl (stereo not given)', 'inactive'),
  ('O=C(CCn1c(=O)oc2ccccc21)Sc1ccc(Cl)cc1Cl', 'inactive');
